- TEST DETAILS: NCI Yeast Anticancer Drug Screen. Data for the rad50 strain (AID 155);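 note: 0% = growth of vehicle-only cultures of the same strain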
- CONDITIONS USED: S. cerevisiae rad50 strain growth inhibition; at 50.0 µM; hits give high values
Compounds without any hit were thinned out: in the full panel of roughly 79,000, 15% have a hit.
Answer each item with its documented growth inhibition.
One number for each entry, in %.

Task: Can you look up the measured growth inhibition of `CCOc1ncnc2ccc(Cl)c(I)c12` for me?
Output: 12.2

Task: Can you look up the measured growth inhibition of `N#C/C(=C\Nc1ccccn1)C(=O)c1ccco1` for me?
Output: 6.85

Task: Can you look up the measured growth inhibition of `N#C/C(=C/c1cccc(Oc2ccccc2)c1)c1ccccc1` for me?
Output: 11.7

Each of the following entries comes with a recorded value; kindly state growth inhibition for each.
1. CC1CS(=O)(=O)O1 (stereo not drawn)
2. CN(C)c1nc(N(C)C)c2cnn(C)c2n1
3. CCOC(=O)c1cc2c(oc1=O)-c1cc(C)ccc1OC2C (stereo not drawn)
4. CCOC(=O)C(Cc1ccccc1)Nc1c(Cl)c(=O)oc2ccc(C)cc12 (stereo not drawn)
5. CCC(c1ccc(O)cc1)c1cc2c(cc1OCCO)OCO2 (stereo not drawn)
6. O=NNc1ccc(Sc2ccc(NN=O)nc2)cc1
7. CCS(=O)(=O)N(CC(=O)O)Cc1ccccc1

Output:
-4.45
21.7
-9.45
18.6
-15.7
4.65
-4.95

Each of the following entries comes with a recorded value; kindly state growth inhibition for each.
1. Cc1n(Cc2ccccc2)nc2sc(N)n[n+]12
2. Cn1ncc2c(NCCc3ccccc3)nc(Cl)nc21

Output:
1: -32; 2: 19.8

Task: Can you look up the measured growth inhibition of `N#CC(C#N)=C/C=C/C=C/c1c(Cl)cccc1Cl` for me?
Output: -6

* * *

Answer each item with its documented growth inhibition.
- TEST DETAILS: NCI Yeast Anticancer Drug Screen. Data for the mlh1 rad18 strain (AID 175)
- CONDITIONS USED: S. cerevisiae mlh1 rad18 strain growth inhibition; at 50.0 µM; hits give high values
About 79,000 compounds went through this panel and 15% of them were active in at least one assay; those are over-represented in the sample as a whole.
Answers are plain numbers, in %.

// known answers, use as guide
Task: Can you look up the measured growth inhibition of `Nn1c(=O)[nH]c2ncn(Cc3ccccc3)c2c1=O` for me?
Output: 3.35

Task: Can you look up the measured growth inhibition of `COc1cc(/C(C#N)=C/c2ccccn2)c([N+](=O)[O-])cc1OC` for me?
Output: -5.9

Each of the following entries comes with a recorded value; kindly state growth inhibition for each.
1. O=Cc1c[nH]c2ccccc2c1=O
2. CC1(C)CC(Nc2ccc(Nc3ccccc3)cc2)CC(C)(C)N1
3. C(=C\c1ccccc1)/Cn1nc(-c2ccccc2)nc1-c1cnccn1
4. CCCCNc1ccc2c(C)c(Cc3ccccc3)c(=O)oc2c1
5. COc1ccc2cccc(C(=O)O)c2c1
6. COc1ccc2c(c1)OC1c3ccccc3OCC21 (configuration not stated)
7. O=C(Nc1ccc(Cl)cc1)C(=O)C1=C(O)c2ccccc2OC1

Output:
[10.9, -19.8, -29.1, -11, -21.6, 30.2, 9.15]

Each of the following entries comes with a recorded value; kindly state growth inhibition for each.
1. C1=NCCCCCCCN=Cc2ccccc2NCCNc2ccccc21
2. CC/C(=C\c1ccc(NC(C)=O)cc1)c1ccncc1
3. CCOc1ccccc1NC(=O)CC(=O)N1N=C(C)C(N=Nc2ccccc2C(=O)O)C1=O (configuration not stated)

Output:
[44.6, -4.6, 17.6]

* * *

- TEST DETAILS: NCI Yeast Anticancer Drug Screen. Data for the cln2 rad14 strain (AID 165);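 note: 0% = growth equal to vehicle treated cultures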
- CONDITIONS USED: S. cerevisiae cln2 rad14 strain, at 50.0 µM, hits give high values
This is part of a sample that, as a whole, favours compounds with a hit. Of some 79,000 tested, about 15% had one in any assay. The source made the active and inactive calls. No stated cut-off is given here; in the data, active means growth inhibition above about 70%; inactive means the rest.
ASSAY ENDPOINT: growth inhibition

// known answers, use as guide
Task: Can you look up the measured growth inhibition of CCCC1([N+](=O)[O-])CCC(C)(O)C(/C(C)=N\O)C1 (stereo not drawn) for me?
Output: -0.15% (inactive)

Task: Can you look up the measured growth inhibition of `Cc1ccc(/C=C/C(=O)/C=C/c2ccc(C)cc2)cc1` for me?
Output: -2.6% (inactive)

Task: Can you look up the measured growth inhibition of `O=c1ccn(-c2ccccn2)c(=O)n1-c1ccccn1` for me?
Output: 24.3% (inactive)

Task: Can you look up the measured growth inhibition of `CCC12OC3(CC)C4C(=O)OC1C1(CC)OC4(CC)C3C(=O)OC21` for me?
Output: -5.75% (inactive)

Task: Can you look up the measured growth inhibition of C#CC(C)(O)CCCCCC (stereo not drawn) for me?
Output: -4.05% (inactive)

Task: Can you look up the measured growth inhibition of `N#Cc1cc(-c2ccccc2)c[nH]c1=O` for me?
Output: -36.9% (inactive)

Task: Can you look up the measured growth inhibition of `Cc1ccc(CCn2cnc3c(N(CCO)CCO)ncnc32)cc1` for me?
Output: 15.6% (inactive)

Task: Can you look up the measured growth inhibition of `CN1CCN(C)c2nc3ccccc3nc21` for me?
Output: -12.1% (inactive)

Each of the following entries comes with a recorded value; kindly state growth inhibition for each.
1. COc1ccc(SSc2ccc(OC)cc2)cc1
2. COC(=O)c1cc(C)n(C)c(=O)c1C#N
3. CC(=O)Nc1ccc(/C=C2\SC(=S)N(C=C(C#N)C#N)C2=O)cc1
4. CCOC(NCc1ccc(OC)c(OC)c1)OCC

Output:
1: 1.95% (inactive); 2: 22.1% (inactive); 3: 38.5% (inactive); 4: 3.55% (inactive)

Task: Can you look up the measured growth inhibition of `CC(=O)c1ccc(OC(=O)Nc2ccc(Cl)cc2)cc1` for me?
Output: -2.3% (inactive)

* * *

Answer each item with its documented growth inhibition.
- TEST DETAILS: NCI Yeast Anticancer Drug Screen. Data for the mec2-1 strain (AID 157)
- CONDITIONS USED: S. cerevisiae mec2-1 strain, at 50.0 µM, hits give high values
This is part of a sample that, as a whole, favours compounds with a hit. Of some 79,000 tested, about 15% had one in any assay. The source made the active and inactive calls. Rule as the data show it: active = growth inhibition above about 70%; inactive = the rest.

Task: Can you look up the measured growth inhibition of C=C1CC(C2CCC(C)(C)C2)OC1=O (configuration not stated) for me?
Output: 8% (inactive)

Task: Can you look up the measured growth inhibition of COc1cc(C)cc(C(=O)C2=NNCC2c2ccccc2)c1O (configuration not stated) for me?
Output: 19.4% (inactive)

Task: Can you look up the measured growth inhibition of `CC/C(=C\c1ccc(NC(C)=O)cc1)c1ccncc1` for me?
Output: -16.6% (inactive)

Task: Can you look up the measured growth inhibition of CCCCCCCC/C=C/CCCCCC1CCCC(C)N1 (configuration not stated) for me?
Output: -20.6% (inactive)

Task: Can you look up the measured growth inhibition of `CC(C)CSc1nc(N)nc2c1ncn2CC(C)C` for me?
Output: -6.4% (inactive)

Each of the following entries comes with a recorded value; kindly state growth inhibition for each.
1. CCOP(=O)(OCC)/C(C#N)=C/c1ccc(N(C)C)cc1
2. O=C1c2ccccc2-c2ccc([N+](=O)[O-])cc21
3. CCOC(=O)c1[nH]n(-c2ccccc2)c(=O)c1/C=N/C(=S)NCCc1ccc(OC)c(OC)c1
4. Cc1cccc(N=Nc2c(-c3ccccc3)nn(C(N)=S)c2C)c1C
5. O=S(=O)(O)c1ccc(N=Nc2c(O)cc(O)cc2O)cc1
6. O=COC1CC2CC1c1ccccc12 (configuration not stated)

Output:
1: -9.2% (inactive); 2: 5.8% (inactive); 3: -0.6% (inactive); 4: -30.4% (inactive); 5: -6.8% (inactive); 6: -9.7% (inactive)

Task: Can you look up the measured growth inhibition of `CN(CCCO)CCCO` for me?
Output: -2.4% (inactive)

* * *

- TEST DETAILS: NCI Yeast Anticancer Drug Screen. Data for the cln2 rad14 strain (AID 165);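 note: 0% = growth equal to vehicle treated cultures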
- CONDITIONS USED: S. cerevisiae cln2 rad14 strain, at 50.0 µM, hits give high values
About 79,000 compounds went through this panel and 15% of them were active in at least one assay; those are over-represented in the sample as a whole.
ASSAY ENDPOINT: growth inhibition (%)
Give bare numbers, in %.

// known answers, use as guide
Task: Can you look up the measured growth inhibition of `Clc1ccc2nc(/C=C/c3ccccc3)cnc2c1` for me?
Output: 8.9

Task: Can you look up the measured growth inhibition of `CN(C)CCCNc1ccc2ncn3c4ccc(O)cc4c(=O)c1c23` for me?
Output: -15.3

Task: Can you look up the measured growth inhibition of `CCOc1ccc(/C=C2\N=C(c3ccccc3)OC2=O)cc1OC` for me?
Output: 0.75

Task: Can you look up the measured growth inhibition of `Cc1ccc(S(=O)(=O)c2ccccc2C)s1` for me?
Output: 11.5

Task: Can you look up the measured growth inhibition of NC1NC(=O)C(CCCOc2ccc([N+](=O)[O-])cc2)C(c2ccccc2)N1 (stereo unspecified) for me?
Output: 2.35

Each of the following entries comes with a recorded value; kindly state growth inhibition for each.
1. Cn1c(=O)c2[nH]c(C3CC(=O)CC(c4nc5c([nH]4)c(=O)n(C)c(=O)n5C)N3)nc2n(C)c1=O (stereo unspecified)
2. O=C(c1ccccc1)n1c2ccccc2c2ccccc21
3. Cc1ccc(S(=O)(=O)CCCCS(=O)(=O)c2ccc(C)cc2)cc1
4. COc1ccccc1OCC(O)CNc1ccc(Cl)cc1C(=O)c1ccccc1 (stereo unspecified)
5. CC1(C)OC2COC(CNCC3OCC4OC(C)(C)OC34)C2O1 (stereo unspecified)
6. CC(=O)OCC1OC(n2c3c(cc(C#N)c2=S)CCCCC3)C(OC(C)=O)C(OC(C)=O)C1OC(C)=O (stereo unspecified)

Output:
1: 1.8; 2: -1; 3: -62.4; 4: -12; 5: -22.3; 6: -32.9

Recorded values, source PubChem BioAssay (NCI).
